Cited source for all entries: PubChem BioAssay

experimentalProtocol: small-molecule microarray binders of probe aWnt5a, primary screen, biochemical, biotinylated probe, 635/667 nm fluorescence (AID 1113);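 note: score merges 667 nm fluorescence intensity with signal-to-noise per printed feature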
conditionLabel: higher = more signal
reportedEndpoint: composite z-score
One number for each entry.

# example entries with known answers
CCCCCN1CC=CC23O[C@@H]4/C=C\CCCOC(=O)C4[C@H]2C(=O)N(CCO)[C@@H]3C1=O (stereo not given in full) : -0.13
COc1ccc([Si](C)(C)[C@H]2[C@H](CC(=O)N(CCO)Cc3ccccc3)O[C@@]3(C(=O)N(Cc4cccc(N5CCCCC5=O)c4)c4ccccc43)[C@@H]2C)cc1 : -0.147
CO[C@H]1O[C@H](CO)[C@@H](OC(=O)Nc2cccc(F)c2)[C@H](OC(=O)c2cc3ccccc3[nH]2)[C@H]1OC(=O)c1cc2ccccc2[nH]1 : -0.232
C=C(COC)C(=O)CC[C@H](OC(C)=O)c1ccccc1OCCO : -0.15

Next, consider the following molecule.
Documented composite z-score of `CCCCC=C[C@@H](NC(=O)C(C)(C)C)c1ccccc1` : 0.0357

----------
experimentalProtocol: S. cerevisiae growth modulation with rapamycin, primary screen, strain BY4716, OD600, 96 h (AID 1091); note: test concentration not given here
conditionLabel: higher = more signal, called active from +8 up or from −8 down
reportedEndpoint: z-score
Numbers only.

# example entries with known answers
O=C(c1ccccc1)N1Cc2ccccc2C[C@@]2(N=C(c3ccc(OCCCO)cc3)O[C@H]2c2ccccc2)C1=O : 5.51
CN1C2C=C(c3ccc(CO)cc3)C(C3C(=O)N(C(N)=O)C(=O)C32)C1C1CC1 (stereo not drawn) : 1.2
C=CCN1C(=O)[C@@]2(O[C@@H](CCO)[C@H]([Si](C)(C)c3ccc(OC)cc3)[C@H]2C)c2cc(N3CCCCC3=O)ccc21 : 1.81
Cc1ccc(S[C@]2(C(=O)NC(C)C)CC(=O)N(Cc3ccccc3)[C@@H]2c2ccc(CO)cc2)cc1 : -0.632
CN1C(=O)C2C(C1=O)C1C=C(CCCO)C2C(C2CC2)N1C (stereo not drawn) : -0.517
C=C(COC)C(=O)CC[C@@H](OC(=O)c1ccccc1-c1ccccc1C(=O)O)c1ccccc1OCCO : -1.12
C=CCNC(=O)[C@@H]1[C@H]2C(=O)O[C@H](c3ccccc3)[C@H](c3ccccc3)N2[C@H](c2ccc(OCCO)cc2)[C@@]12C(=O)Nc1ccc(C#CCNC(N)=O)cc12 : 1.92

Documented z-score of `O=C1OC[C@@H](c2ccccc2)n2cc(/C=C/c3ccccc3)cc21` : 0.614

----------
Task for the reader: assign each of the following molecules its reported composite z-score.
systemName: Focal adhesion kinase 1 (Homo sapiens)
experimentalProtocol: small-molecule microarray binders of FAK, primary screen, biochemical, 635/667 nm fluorescence, BSA, DTT (AID 1130);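 note: composite of spot emission at 667 nm and signal to noise over triplicate slides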
conditionLabel: PTK2 binding, 635 nm fluorescence, higher = more signal
Answers are plain numbers.

# example entries with known answers
COC(=O)[C@@]1(Cc2ccc(F)cc2)[C@H]2c3cc(C(=O)N4CCCC4)n(Cc4ccc(OC(F)(F)F)cc4)c3C[C@H]2CN1C(=O)c1ccccc1 : 0.415
C=CCNC(=O)[C@H]1[C@@H]2C(=O)O[C@@H](c3ccccc3)[C@@H](c3ccccc3)N2[C@@H](c2ccc(O)cc2)[C@]12C(=O)Nc1ccc(C#CCC(C(=O)OC)C(=O)OC)cc12 : 0.144
O=C1OC[C@@H](c2ccccc2)n2cc(/C=C/c3ccccc3)cc21 : -0.102
COCCOC(=O)N1C(=O)[C@@]2(c3cc(C#CC4=CCCCC4)ccc31)[C@H](C(=O)N1CCCCCCC1)[C@H]1C(=O)O[C@H](c3ccccc3)[C@H](c3ccccc3)N1[C@@H]2c1ccccc1OCCO : 0.391
COC(=O)[C@@]1(Cc2ccc(OC)cc2)[C@H]2c3cc(C(=O)N(C)C)n(Cc4c(CO)[nH]cc(C)c4=O)c3C[C@H]2CN1C(=O)c1ccccc1 : 1.93
O=C1O[C@H](c2ccccc2)[C@H](c2ccccc2)N2[C@H]1[C@@H](C(=O)N1CCN(c3ncccn3)CC1)[C@]1(C(=O)Nc3ccc(C#CC4(O)CCCCCC4)cc31)[C@H]2c1ccc(O)cc1 : 0.62

Quick one: give me composite z-score for each item below, same order please.
1. CC(CO)N1C(=O)[C@@H]2[C@H]3C(=O)OCC=C[C@H]3OC23C=CCN(c2ccc4ccccc4c2)C(=O)[C@@H]13 (stereo partly drawn)
2. Cc1cccc([C@H]2C[C@H]3C(Br)=C[C@@]2(CO)C(=O)[C@]32CO2)c1
3. COCCCNC(=O)[C@@]1(Cc2ccccc2I)c2ccccc2C(=O)N(Cc2ccccc2OC)[C@H]1c1ccc(CO)cc1
4. CCOC(=O)C[C@H]1[C@H](OC(=O)c2ccc(-c3ccccc3)cc2)[C@@H](NC(=O)c2ccc(-c3ccccc3)cc2)c2cc(OCCCO)ccc2N1C(=O)c1ccccc1
5. CN(C)CCCC[C@@H]1NC(=O)[C@H]2C[C@@H](C(=O)NCCCCCCNC(=O)CS)[C@@H](c3cccc(OCCO)c3)N2C1=O
6. C=CCNC(=O)[C@H]1[C@@H]2C(=O)O[C@@H](c3ccccc3)[C@@H](c3ccccc3)N2[C@@H](c2ccc(OCCO)cc2)[C@]12C(=O)Nc1ccc(C#Cc3ccc(OC)cc3)cc12

// result
[0.204, 0.259, 0.0958, 1.03, 0.292, 0.905]

Documented composite z-score of `CC(C)(C)OC(=O)CC[C@@]1(C(=O)N2CCOCC2)N=C(c2ccc(OCCCO)cc2)O[C@@H]1c1ccccc1CN=[N+]=[N-]` : 0.855
